Values from PubChem BioAssay AID1347056

- runDescription: TROY pathway blockers in reporter cells – Q293 LMP1-TROYcd cells, NF-kB luciferase, uHTS, primary screen (AID 1347056)
- condition: 4 h, at 10 µM
Among all 360,000 compounds or so, about 3,600 (1%) were called active.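 Rule for the calls: active = compounds whose plate-normalised and pattern-corrected inhibition of the luciferase reporter signal at the single screening dose is 50% or more; inactive = the rest.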 This excerpt belongs to a sample that is enriched for actives.
Valid outcomes are listed here; reply with one: active, inactive

Illustrative cases are given below, each with its answer.
{"compound": "N#Cc1c(-c2cccs2)nc(SCC(=O)c2ccc(Br)cc2)[nH]c1=O", "categoryLabel": "inactive"}
{"compound": "CNc1cc(-c2c(OC)cccc2OC)ncn1", "categoryLabel": "inactive"}
{"compound": "N#Cc1ccc(C(=O)Nc2nc(-c3cccs3)c(C(=O)C(F)(F)F)s2)cc1", "categoryLabel": "active"}

In the following, a different compound is considered.
Query: Which outcome was entered for the compound COCCN1C(=O)c2oc3c(C)cc(C)cc3c(=O)c2C1c1cccc(O)c1 (centres undefined) in this test?
Result: inactive
